Each recorded value in this set is attributed to a melting point compilation (Tetko et al.; mined from patent text by program, amines drawn as free bases though some values may be those of a salt).

Documented melting point across a set of compounds

compound | melting point
CCc1nc(=O)[nH]c2sccc12 | 217 to 220 °C
COc1ccnc(CSc2nc3c(C)c(OC(F)F)c(C)cc3[nH]2)c1 | 168 to 169 °C
O=C1C(c2cccc(O)c2)CCCCN1Cc1ccccc1 (configuration not stated) | 160 to 166 °C
O=C1N(Cc2ccc(=O)[nH]c2)c2ccccc2C12COc1cc3c(cc12)OCO3 (configuration not stated) | 247 to 250 °C
CCOC(=O)c1csnc1-c1ccc(Cl)cc1 | 70.5 to 71.5 °C
O=C(Nc1cc([N+](=O)[O-])ccc1F)C(F)(F)F | 112 to 113 °C
CC(=O)NC1CCN(c2nc(Nc3ccc(F)cc3F)c(C(=O)O)cc2F)C1 (configuration not stated) | 232 to 234 °C
CCCc1c(CSc2nnc(SCCCCCCC(=O)O)s2)ccc(C(C)=O)c1O | 63 to 68 °C
O=C(Nc1ccc(Sc2ccncc2)cc1)c1ccc([N+](=O)[O-])cc1 | 295 to 298 °C
CS(=O)(=O)Nc1ccc(NC(=O)CN2CCC(Cc3ccc(F)cc3)CC2)cc1 | 169 to 171 °C
N#Cc1c(Cl)c2cc(Cl)cnc2[nH]c1=O | 247 °C
C[Si](C)(C)C#Cc1cn(-c2c(Cl)cc(C(F)(F)F)cc2Cl)nc1C(F)(F)F | 105 to 108 °C
COc1cc(C(=O)c2ccc([N+](=O)[O-])cc2)c(CC(=O)O)cc1Cl | 185 to 188 °C
COc1ccccc1NC(C#N)c1c(Cl)cccc1Cl (configuration not stated) | 118 °C
COc1ccc(C(=O)Cn2cc[nH]c2=O)cc1OC1CCCC1 | 201 °C
O=c1c(Cl)c(-c2ccc3c(ccn3[C@H]3CC[C@H](O)CC3)c2)ccn1CC1CC1 | 209 °C
O=C(O)c1ncoc1-c1ccoc1 | 189 to 191 °C
CC(C)=Nn1c(S)nnc1-n1cccn1 | 132 to 138 °C
Cc1ccc(C(=O)C=CN(C)C)cc1C | 108 to 110 °C
CN1CCC(c2c[nH]c3ccc(O[Si](C)(C)C(C)(C)C)cc23)CC1 | 191 to 195 °C
Cn1cc(C(=O)O)c(=O)c2cc(F)c(F)cc21 | 284 to 287 °C
COc1ccc(N2CCN(c3c(C)c(C)c4c(c3C)C(N3CCCCCC3)C(C)(C)O4)CC2)cc1 (configuration not stated) | 127 to 128 °C

###

Documented melting point across a set of compounds

compound | melting point
O=C(Nc1c[nH]nc1C(=O)NCCC(F)(F)F)c1ccccn1 | 241 to 243 °C
O=c1c(-c2ccc(F)cc2)coc2c(O)c(O)ccc12 | 289 °C
CCCCNc1nc(C)c(C#N)cc1C(=O)OCC | 61 to 63 °C
O=C(O)c1cc(-c2ccncc2)c[nH]c1=O | > 300 °C
CC(=O)N1CCN(c2ccn3nc(-c4ccccc4)c(-c4ccc(=O)n(C(C)C)n4)c3c2)CC1 | 148 to 149 °C
CC[C@H](C)C(OCc1ccccc1)[C@H]1[C@H]([N+](=O)[O-])[C@H](c2ccccc2)N[C@@H]1C(=O)NCCCCCC(=O)O (some centres undefined) | 105 to 106 °C
O=S1CCN(c2nc(N3CCOCC3)nc(-n3c(C(F)F)nc4ccccc43)n2)CC1 | 225 to 226 °C
NS(=O)(=O)c1ccc(-n2nc(C(F)(F)F)cc2-c2ccc(-c3cscn3)c(C(F)(F)F)c2)cn1 | 114 °C
O=C(O)C1CC(=O)N(Cc2ccccc2)C1C(=O)N(Cc1ccccc1)Cc1ccccc1 (centres undefined) | 123 to 125 °C

###

molecule | melting point
CCN(CC)C(=O)n1cnc(S(=O)(=O)C(F)F)n1 | 58 to 59 °C
COc1c(CN2CCC(=O)C(C(c3ccccc3)c3ccccc3)C2)cc(C(C)(C)C)cc1C(C)(C)C (stereo not given) | 136 to 138 °C
COC(=O)Nc1nc(-c2ccccc2)c(-c2nc3ccccc3c(=O)n2-c2ccccc2OC)s1 | 228 to 230 °C
Nc1nc(CN2CCC(c3c[nH]c4ccccc34)CC2)cs1 | 195 to 198 °C
O=C(O)c1nn(-c2ccc(Cl)cc2Cl)c(-c2ccc(Cl)cc2)c1CF | 60 to 80 °C

###

Reported melting point values for a set of compounds

compound | melting point
COC(=O)c1ccc(C(=O)NS(=O)(=O)c2ccc(CCNC(=O)c3cc(Cl)ccc3OC)cc2)cn1 | 233 °C
COC(=O)c1cn(Cc2ccc(OCc3nc(-c4ccccc4)oc3C)cc2)nc1C(C)C | 90 to 91 °C
O=S1(=O)NCCN(C2CC2)c2ccc(Oc3ccccc3)cc21 | 119 °C
CS(=O)c1ccc(-c2coc3ccc(-c4nnc(N)o4)cc23)cc1Cl (stereo not given) | 266 to 267 °C
CSC[C@H](Nc1cc(F)ccc1[N+](=O)[O-])C(=O)O | 147 °C
O=C(Cc1cccnc1)Nc1cccc(-c2ccnc3c(C(=O)c4cccs4)cnn23)c1 | > 200 °C
CCCCc1oc2ccccc2c1C(=O)NCc1ccc2c(-c3ccc(Cl)cc3)c(O)ccc2c1 | 122 to 124 °C
O=c1oc2c(I)cc(I)cc2s1 | 155 to 157 °C
CC(=O)N1CCN=C1c1c(Cl)nc(N)nc1Cl | 221 °C
CN1CCN(C(=O)/C=C/CSc2nc(N)cc(Cl)n2)CC1 | 155 to 156 °C
CCC(CC)N1COCc2c1cc(C)nc2Oc1c(C)cc(C)cc1C | 112 to 114 °C
O=C(c1ccc(Br)cc1)c1cc2c(ccc3ccccc32)oc1=O | 213 to 215 °C
O=C1CC2(CCCC2)CC(=O)N1CCCCc1ccncc1 | 155 to 157 °C
CCCCCCCCCCOCC(COCCCCCCCCCC)(CC(=O)O)CC(=O)O | 68 to 71 °C
COc1ccc(Nc2nc(NC3CCCCCC3)nc(Oc3ccc(I)cc3)n2)cc1Cl | 80 to 82 °C
O=C(O)c1cccc(-c2cc(-c3ccc(Cl)cc3)no2)c1 | 265 to 266 °C
COc1ccc(-c2ccc(COc3cccc4cc(NS(=O)(=O)C(F)(F)F)ccc34)c(F)c2)cc1 | 108 to 111 °C
CC(=O)Nc1c(Cl)c(C(C)(C)C)nn1-c1c(Cl)cc(C(F)(F)F)cc1Cl | 211 °C
COC(=O)C1CN1C(C)=O (stereo not given) | 39 to 40 °C
CCOc1cc(C(F)(F)F)sc1C(=O)OC | 93.6 °C
CCOC(=O)c1cn(CC)c2cc(N3CCN(C)CC3)c(F)cc2c1=O | 176 to 179 °C
COCC1CN(c2ccc(C3CCN(C(=O)C=Cc4ccccc4)CC3)cc2)C(=O)O1 (racemic) | 136 to 138 °C
O=C(O)c1ccc(OCCCCCCc2cccc(O)c2O)c(Cl)c1 | 157 to 160 °C
CCOc1cc(C)c(NCCO)cc1[N+](=O)[O-] | 119 °C
CCOC(=O)CCCSC(=S)NCc1ccc(Cl)cc1 | 61 to 62 °C
COc1cc(-c2nc3ccc(OCCCN4CCCCC4)cc3n2Cc2ccccc2C(F)(F)F)cc(OC)c1OC | 138 °C
COc1ccc(NS(=O)(=O)c2cc3cc(Cl)ccc3oc2=O)cc1O | 225 to 226 °C
COc1ccc(C2=NN(c3ccc(OCc4ccccc4)cc3)C(=O)[C@@H]3CC=CC[C@H]23)cc1OC | 104 to 105 °C
Cc1nn(-c2ccccn2)c2c1c(=O)c1ccccc1n2C | 192 to 193 °C
Cc1ccc(N2C(=O)C(O)=C(C(=O)c3ccc(C(C)C)cc3)C2c2ccc(Cn3cccn3)cc2)nn1 (stereo not given) | 263 °C
CCC(=O)Oc1ccc(S(=O)(=O)N2c3ccccc3-c3ccc(F)cc3C2CC)cc1 (stereo not given) | 111 to 112 °C
COC(=O)Nc1nc2cc(S(=O)CC3(C)CC3(Cl)Cl)ccc2[nH]1 (stereo not given) | 231 to 233 °C
CC(C)c1ccc(-c2ccc(-c3ccccc3)s2)s1 | 104 to 106 °C
C=CCNC(=O)N1CC(OCc2ccc(C(F)(F)F)cc2)C1 | 120 °C
NS(=O)(=O)c1cc(Cl)ccc1S | 142 to 144 °C
N#Cc1cc(-c2ccoc2)c2ccc(COc3cc(F)cc(-c4cc(F)cc(F)c4)c3)cc2n1 | 189 to 192 °C
C(=Nc1ccccn1)N(c1ccccc1)c1ccccc1 | 92 to 94 °C
Cc1ccc(-c2c(Cl)nc3ncnn3c2NC(C)C)c(F)c1 | 121 °C
CCCCc1c(Cl)nc(N)nc1Cl | 169 to 170 °C
COc1cc(C(C)C)c2c(c1)S(=O)(=O)N(COc1cc(C(=O)O)nn1-c1ccccc1)C2=O | 193 to 194 °C
